Molecular target: T1, human PD-L1 (CD274), full-length, expressed on the surface of CHO cells (human, UniProt Q9NZQ7 19-290)
T1 construct: also called huPD-L1; B7-H1
T1 sequence (Q9NZQ7 19-290): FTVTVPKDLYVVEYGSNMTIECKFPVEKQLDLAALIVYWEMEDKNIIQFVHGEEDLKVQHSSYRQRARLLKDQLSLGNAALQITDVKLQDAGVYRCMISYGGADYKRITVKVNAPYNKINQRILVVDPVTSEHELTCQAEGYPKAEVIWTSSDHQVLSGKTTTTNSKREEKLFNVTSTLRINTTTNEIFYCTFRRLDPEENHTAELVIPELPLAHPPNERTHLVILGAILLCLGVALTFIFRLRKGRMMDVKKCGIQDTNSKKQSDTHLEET
Assay: flow cytometry on PD-L1 CHO cells; MFI against WT CD80 ECD-Fc (R&D)
Consider the following binders and their measured Fold change to WT readings.
Just the number in fold, nothing appended.

[[record]]
binder = "variant CD80 IgV-Fc Q33L/E35D/M43I/L85Q/R94W (Fc fusion, not shown: a dimerising Fc or GST) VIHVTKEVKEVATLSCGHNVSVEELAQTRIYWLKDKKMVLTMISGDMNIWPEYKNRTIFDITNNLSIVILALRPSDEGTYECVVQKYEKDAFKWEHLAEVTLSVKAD"
value_observed = 3.65


Proceeding to the next binder to report its Fold change to WT.
Prompt: Tell me Fold change to WT reported for variant CD80 IgV-Fc H18Y/E35D/V68M/L97Q (Fc fusion, not shown: a dimerising Fc or GST) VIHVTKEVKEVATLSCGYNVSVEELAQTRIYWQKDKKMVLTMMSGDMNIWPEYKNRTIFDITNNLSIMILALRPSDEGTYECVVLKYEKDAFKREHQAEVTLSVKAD
Completion: 15.3
